Test system: DU-145 prostate
Assay: NCI-60 one-dose screen, 48 h (100 = growth as untreated, 0 = no growth, -100 = all killed)
Settings: 10 µM unless noted
This is part of a sample that, as a whole, favours compounds with a hit. Of some 83,000 tested, about 20% had one in any assay.

- COMPOUND: "Cc1ccccc1N1C(c2ccccc2)=NNC12C=CC(=O)C=C2Cl (stereo not given)"
  growth (%): 110
- COMPOUND: "N#Cc1c(-c2ccc(Cl)cc2)csc1NC(=O)Nc1cccc(C(F)(F)F)c1"
  growth (%): 16.9
- COMPOUND: "O=C1CC(c2ccc(Cl)cc2)c2ncn(-c3cccc(Cl)c3)c2N1 (stereo not given)"
  growth (%): 62.9
- COMPOUND: "O=c1nc2c(-c3nc4ccccc4s3)n[nH]n2c2sc3c(c12)CCCC3"
  growth (%): 104
- COMPOUND: "CNS(=O)(=O)Nc1nccc(Cc2c(C)c3ccc(Oc4ncccn4)cc3oc2=O)c1F"
  growth (%): 61.3
- COMPOUND: "Cn1cnc2c(F)c(Nc3ccc(Br)cc3Cl)c(C(=O)NOCCO)cc21"
  growth (%): 69.6
- COMPOUND: "Cc1nc(N)sc1-c1ccnc(Nc2ccc(N3CCOCC3)cc2)n1"
  growth (%): 33.2
- COMPOUND: "O=C(Cn1c(=O)ccn(CCCCCCCCOc2ccc(Br)cc2)c1=O)Nc1ccc(Oc2ccc(Cl)cc2)cc1"
  growth (%): 73.7
- COMPOUND: "N#CC(C#N)=NO"
  growth (%): 111
- COMPOUND: "Cc1nc(-c2cn3c(n2)-c2ccc(-c4cnn(C(C)(C)C(N)=O)c4)cc2OCC3)n(C(C)C)n1"
  growth (%): 28.7
